Entries and their TGI values follow.
System: LOX IMVI melanoma
test.method.notes: NCI tumour cell line growth inhibition, 48 h

molecule	TGI
O=c1[nH]c2ccccc2nc1-c1c[nH]c2ccccc12	> 100 µM
CCC1C(c2cc(OC)c(OC)c(OC)c2)c2cc3c(cc2OC1N1CCCC1)OCO3 (stereo unspecified)	22 µM
CCOC(=O)/C(C(=S)Nc1ccccc1)=C(/N)N1CCCC1	> 100 µM
CCC(NC(C)c1ccccc1)C(O)c1ccc(OCc2ccccc2)c(OCc2ccccc2)c1 (stereo unspecified)	26.3 µM
Brc1cccc(C2SCc3nc4ccccc4n32)c1 (stereo unspecified)	28.6 µM
CC12CCC(C(=O)OC1=O)C(C)(C)O2 (stereo unspecified)	> 100 µM
N#CC(c1ccccc1)c1nc2ccc(=N)cc-2n(O)c1C(C#N)c1ccccc1 (stereo unspecified)	> 100 µM
O=S(=O)(c1ccccc1)C(CN1CCCCC1)S(=O)(=O)c1ccccc1	> 100 µM
COc1cc2c(c(OC)c1OC)-c1ncc3cc(OC)c(OC)c(OC)c3c1C2	29.9 µM
C=CC(=O)N(C)[C@H]1C[C@H]2OC(C)(C1OC)n1c3ccccc3c3c4c(c5c6ccccc6n2c5c31)C(=O)NC4 (stereo partly specified)	0.67 µM
CCCn1c(C)nc2c1C(=O)c1ccccc1C2=O	> 100 µM
Cc1cc2c3ccc(C)[n+](C)c3ccc2n1C	30.2 µM
Cc1ccccc1N=Nc1ccc(N=Nc2c(O)ccc3ccccc23)c(C)c1	> 100 µM
COc1ccc(-c2c(N)n(-c3nc4ccccc4s3)c(=O)c3cc([N+](=O)[O-])ccc23)cc1	48.3 µM
COc1ccc(NC(=O)CC(=O)N2N=C(C)C(N=Nc3ccc(S(=O)(=O)c4ccc(N=NC5C(=O)N(C(=O)CC(=O)Nc6ccc(OC)cc6)N=C5C)cc4)cc3)C2=O)cc1 (stereo unspecified)	> 100 µM
COc1cc2c(cc1OCCCCOc1cc3c(cc1OC)C(=O)N1CCC[C@H]1CN3)N=C[C@@H]1CCCN1C2=O	> 32.5 µM
Cc1n[nH]c(=O)c2cc(-c3ccccc3)[nH]c12	> 100 µM
COc1c2c(cc3oc(C)cc(=O)c13)OC(=N)C(C(N)=O)C2CC(=O)c1ccc(N)cc1 (stereo unspecified)	> 100 µM
O=C(NN1C(=O)CSC12CCCCC2)c1[nH]c2ccc(F)cc2c1-c1ccccc1	61.9 µM
COc1nc(N)c(NC2OC(CO)C(O)C2O)c(=O)[nH]1 (stereo unspecified)	> 100 µM
Cc1ccc(Oc2ccc(C)cc2[N+](=O)[O-])cc1	> 100 µM

Data origin: PubChem BioAssay (NCI)
